target: Toll-like receptor 7 (Homo sapiens); assay: Agonist activity at human TLR7 in HEK-Blue hTLR7 cells harboring SEAP reporter transgene incubated for 18 hrs by quanti-blue reagent based assay
Sequence (Q9NYK1 whole entry): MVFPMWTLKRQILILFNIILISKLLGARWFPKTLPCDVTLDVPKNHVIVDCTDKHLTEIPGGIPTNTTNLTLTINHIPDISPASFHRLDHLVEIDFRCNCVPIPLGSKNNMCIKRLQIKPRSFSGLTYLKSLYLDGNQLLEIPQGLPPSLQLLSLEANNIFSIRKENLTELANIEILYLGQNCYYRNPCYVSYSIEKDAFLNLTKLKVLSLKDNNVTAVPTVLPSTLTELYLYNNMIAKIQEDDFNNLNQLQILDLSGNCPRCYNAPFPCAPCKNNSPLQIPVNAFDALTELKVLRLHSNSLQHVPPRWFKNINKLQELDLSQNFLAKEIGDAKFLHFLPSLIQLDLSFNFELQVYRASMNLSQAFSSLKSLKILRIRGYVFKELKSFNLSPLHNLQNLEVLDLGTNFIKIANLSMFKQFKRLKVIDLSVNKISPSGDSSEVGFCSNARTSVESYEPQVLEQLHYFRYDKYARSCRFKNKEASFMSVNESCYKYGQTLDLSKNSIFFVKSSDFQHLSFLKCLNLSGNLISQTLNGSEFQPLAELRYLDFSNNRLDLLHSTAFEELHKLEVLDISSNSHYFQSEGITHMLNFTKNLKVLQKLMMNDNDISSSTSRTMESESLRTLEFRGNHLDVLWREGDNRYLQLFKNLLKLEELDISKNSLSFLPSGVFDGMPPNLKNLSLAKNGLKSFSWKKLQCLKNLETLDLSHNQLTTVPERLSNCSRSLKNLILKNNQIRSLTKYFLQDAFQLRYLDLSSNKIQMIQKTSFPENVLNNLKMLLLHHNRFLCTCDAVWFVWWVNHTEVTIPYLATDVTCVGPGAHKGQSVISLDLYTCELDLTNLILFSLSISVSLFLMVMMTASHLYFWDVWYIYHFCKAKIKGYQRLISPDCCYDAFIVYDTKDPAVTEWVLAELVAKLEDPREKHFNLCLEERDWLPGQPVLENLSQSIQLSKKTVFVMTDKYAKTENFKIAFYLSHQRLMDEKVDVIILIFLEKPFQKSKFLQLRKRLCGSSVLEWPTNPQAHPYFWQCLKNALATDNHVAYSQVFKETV
molecules and their reported pEC50
Lab note: report pEC50 as minus log10 of the concentration in molar units, number only.

Example results:
structure.smiles.string	pEC50
CCC[C@@H](CCO)Nc1nc(N)nc2cnn(Cc3ncc(C4CCC5(CC4)CNC5)cc3OC)c12	6.88
CCC[C@@H](CCO)Nc1nc(N)nc2cnn(Cc3ncc(C4CCN(CCO)CC4)cc3OC)c12	7.31
CCC[C@@H](CCO)Nc1nc(N)nc2cnn(Cc3ncc(C4CC5(C4)CN(C4CCOCC4)C5)cc3OC)c12	6.43
CCCCNc1nc(N)nc2cnn(Cc3ccc(N4CCNCC4)cc3OC)c12	6.11

Prompt: # query: pEC50 of entry "CCC[C@H](CCO)Nc1nc(N)nc2cnn(Cc3ncc(C4CCN(C5CCOCC5)CC4)cc3OC)c12"
Response: 6.57

Prompt: Field request: pEC50 | item: "CCCCNc1nc(N)nc2cnn(Cc3ccc(C4CCNCC4)cc3OC(F)F)c12"
Response: 7.06

Prompt: What value of measured pEC50 is listed for "CCC[C@@H](CCO)Nc1nc(N)nc2cnn(Cc3ncc(C4CCNCC4)cc3OC)c12" ?
Response: 6.79

====

molecular target: UniProt P10635
Sequence (P10635 whole entry): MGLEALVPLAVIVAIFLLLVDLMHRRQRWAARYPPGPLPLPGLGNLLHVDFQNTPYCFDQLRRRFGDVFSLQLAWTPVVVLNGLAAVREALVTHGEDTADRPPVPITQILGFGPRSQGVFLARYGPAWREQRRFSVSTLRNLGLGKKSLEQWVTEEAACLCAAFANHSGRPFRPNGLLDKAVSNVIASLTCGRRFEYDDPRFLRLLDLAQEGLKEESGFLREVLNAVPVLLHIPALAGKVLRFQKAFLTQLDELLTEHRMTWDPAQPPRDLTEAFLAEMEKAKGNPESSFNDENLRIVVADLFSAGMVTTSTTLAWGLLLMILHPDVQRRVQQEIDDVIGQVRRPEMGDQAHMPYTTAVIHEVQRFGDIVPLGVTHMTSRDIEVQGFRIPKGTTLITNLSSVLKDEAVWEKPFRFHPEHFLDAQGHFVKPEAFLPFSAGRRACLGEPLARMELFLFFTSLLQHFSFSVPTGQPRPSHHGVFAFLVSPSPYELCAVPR
pIC50: −log10 of the molar value.
endpoint.label: pIC50

structure.smiles.string	pIC50
CCCCNc1nc(N)nc2cnn(Cc3ncc(C4CCNCC4)cc3OC)c12	< 4.70
CCC[C@@H](CCO)Nc1nc(N)nc2cnn(Cc3ncc(C4=CC5(CCN(C(C)C)CC5)C4)cc3OC)c12	< 4.70
CCC[C@@H](CCO)Nc1nc(N)nc2cnn(Cc3ncc(C4CCN(C(C)C)CC4)cc3OC)c12	< 4.70
CCC[C@@H](CCO)Nc1nc(N)nc2cnn(Cc3ncc(C4CCN(C5CCOCC5)CC4)cc3OC)c12	< 4.70
CCC[C@@H](CCO)Nc1nc(N)nc2cnn(Cc3ncc(C4CC5(C4)CN(C4CCOCC4)C5)cc3OC)c12	< 4.70
CCCCNc1nc(N)nc2cnn(Cc3ccc(C4CCNCC4)cc3OC)c12	4.85

Prompt: Any idea what pIC50 came out for "CCCCNc1nc(N)nc2cnn(Cc3ccc(N4CCNCC4)cc3OC)c12" on UniProt P10635?
Response: < 4.70

Prompt: Lab request: please report pIC50 under test system UniProt P10635 for "CCC[C@@H](CCO)Nc1nc(N)nc2cnn(Cc3ncc(C4CCC5(CC4)CNC5)cc3OC)c12"
Response: < 4.85

Prompt: API: value(readout=pIC50, system=UniProt P10635) for record "CCCCNc1nc(N)nc2c(C3CC3)nn(Cc3ncc(C4CCNCC4)cc3OC)c12"
Response: < 4.70

Prompt: Lab note: need pIC50 with UniProt P10635 for entry "CCC[C@@H](CCO)Nc1nc(N)nc2cnn(Cc3ncc(C4CCC5(CC4)CN(C4CCOCC4)C5)cc3OC)c12" , please look it up.
Response: < 4.70

Prompt: Notebook: pull reported pIC50 for UniProt P10635, entry "CCC[C@@H](CCO)Nc1nc(N)nc2cnn(Cc3ncc(C4CCC5(CC4)CN(C(C)C)C5)cc3OC)c12"
Response: < 4.70

====

Quick reference: concentration at 5 min of the listed items.
assay: Drug concentration in nontumor bearing Balb/C mouse at 0.5 mg/kg measured after 5 mins; assay type: ADME, organism-based; conditions: in vivo, read-out: Drug uptake
Respond with the bare value in nM.

structure.smiles.string	unit.tag	concentration at 5 min
CCC[C@@H](CCO)Nc1nc(N)nc2cnn(Cc3ccc(CNC4CCOCC4)cc3OC)c12	nM	66

Could you now consider this next compound?
Prompt: Please look up its concentration at 5 min: "CCC[C@@H](CCO)Nc1nc(N)nc2cnn(Cc3ncc(C4CCN(C5CCOCC5)CC4)cc3OC)c12"
Response: 266

====

Target: Cytochrome P450 2C8 (Homo sapiens)
Sequence (P10632 whole entry): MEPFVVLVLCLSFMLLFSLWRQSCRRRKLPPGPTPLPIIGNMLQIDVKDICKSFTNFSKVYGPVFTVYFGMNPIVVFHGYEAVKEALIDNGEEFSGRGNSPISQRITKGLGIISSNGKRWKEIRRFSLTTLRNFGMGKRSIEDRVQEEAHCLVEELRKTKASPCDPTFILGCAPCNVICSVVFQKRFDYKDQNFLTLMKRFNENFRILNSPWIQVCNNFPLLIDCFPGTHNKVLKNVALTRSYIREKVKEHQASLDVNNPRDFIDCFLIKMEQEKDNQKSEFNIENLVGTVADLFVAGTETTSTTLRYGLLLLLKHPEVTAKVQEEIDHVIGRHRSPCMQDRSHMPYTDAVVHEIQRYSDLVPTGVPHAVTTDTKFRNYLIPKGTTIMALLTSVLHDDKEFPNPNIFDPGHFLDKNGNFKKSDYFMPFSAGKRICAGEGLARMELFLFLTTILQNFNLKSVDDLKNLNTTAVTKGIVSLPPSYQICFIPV
IC50 reference

Example entries and their recorded answers appear below.
structure.smiles.string	endpoint.label	readout.value
CCC[C@@H](CCO)Nc1nc(N)nc2cnn(Cc3ncc(C4CCN(CC#N)CC4)cc3OC)c12	IC50	> 20 µM
CCC[C@@H](CCO)Nc1nc(N)nc2cnn(Cc3ncc(C4CCNCC4)cc3OC)c12	IC50	> 20 µM
CCC[C@@H](CCO)Nc1nc(N)nc2cnn(Cc3ncc(C4CCN(CCO)CC4)cc3OC)c12	IC50	> 20 µM
CCCCNc1nc(N)nc2c(C)nn(Cc3ncc(C4CCNCC4)cc3OC)c12	IC50	> 20 µM

Prompt: Entry "CCCCNc1nc(N)nc2cnn(Cc3ccc(C4CCNCC4)cc3OC)c12" , system Cytochrome P450 2C8 (Homo sapiens): what IC50 was measured?
Response: 4.97 µM

====

Reported pIC50 values, Voltage-gated inwardly rectifying potassium channel KCNH2 (Homo sapiens, UniProt Q12809).
Just the number, please; pIC50 means minus log10 of the concentration in mol/L.

structure.smiles.string	tested.system	pIC50
CCC[C@@H](CCO)Nc1nc(N)nc2cnn(Cc3ncc(C4CCC5(CC4)CNC5)cc3OC)c12	Voltage-gated inwardly rectifying potassium channel KCNH2 (Homo sapiens, UniProt Q12809)	4.85

Prompt: Missing value: pIC50, Voltage-gated inwardly rectifying potassium channel KCNH2 (Homo sapiens, UniProt Q12809), entry "CCCCNc1nc(N)nc2cnn(Cc3ccc(C4CCNCC4)cc3OC)c12" . Fill in?
Response: 5.40

====

target: Cytochrome P450 3A4 (Homo sapiens, UniProt P08684); assay: Inhibition of CYP3A4 (unknown origin) using BFC as substrate preincubated with compound followed by substrate addition at 30 mins; type: ADME
Sequence (P08684 whole entry): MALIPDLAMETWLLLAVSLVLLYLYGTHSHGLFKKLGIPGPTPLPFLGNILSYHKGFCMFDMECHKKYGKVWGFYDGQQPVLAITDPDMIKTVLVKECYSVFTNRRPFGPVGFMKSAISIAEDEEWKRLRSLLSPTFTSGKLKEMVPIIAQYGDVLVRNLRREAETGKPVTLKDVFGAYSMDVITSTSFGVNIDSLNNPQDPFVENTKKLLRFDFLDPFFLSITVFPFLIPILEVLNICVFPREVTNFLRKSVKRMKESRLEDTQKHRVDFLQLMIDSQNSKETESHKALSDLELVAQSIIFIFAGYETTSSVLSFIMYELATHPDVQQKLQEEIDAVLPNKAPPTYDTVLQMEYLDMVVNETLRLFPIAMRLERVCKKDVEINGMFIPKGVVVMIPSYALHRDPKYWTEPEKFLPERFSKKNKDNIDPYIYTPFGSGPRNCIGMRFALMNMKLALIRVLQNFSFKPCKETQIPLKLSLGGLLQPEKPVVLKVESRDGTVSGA
endpoint.label: IC50

structure.smiles.string	tested.system	readout.value
CCCCNc1nc(N)nc2c(C3CC3)nn(Cc3ncc(C4CCNCC4)cc3OC)c12	Cytochrome P450 3A4 (Homo sapiens, UniProt P08684)	10.1 µM
CCC[C@@H](CCO)Nc1nc(N)nc2cnn(Cc3ncc(C4=CC5(CCN(C(C)C)CC5)C4)cc3OC)c12	Cytochrome P450 3A4 (Homo sapiens, UniProt P08684)	> 20 µM
CCC[C@@H](CCO)Nc1nc(N)nc2cnn(Cc3ncc(C4CCN(C5CCOCC5)CC4)cc3OC)c12	Cytochrome P450 3A4 (Homo sapiens, UniProt P08684)	> 20 µM
CCCCNc1nc(N)nc2cnn(Cc3ccc(N4CCNCC4)cc3OC)c12	Cytochrome P450 3A4 (Homo sapiens, UniProt P08684)	> 20 µM

Now consider the entry below.
Prompt: So what does the record say about IC50 for "CCC[C@H](CCO)Nc1nc(N)nc2cnn(Cc3ncc(C4CCN(C5CCOCC5)CC4)cc3OC)c12" ?
Response: > 20 µM

====

assay: Cytotoxicity against PHA-activated T-cells (unknown origin) assessed as inhibition of IL-2 induced cell proliferation measured after 72 hrs by MTS assay; assay type: toxicity, cell-based
endpoint.label: IC50 at 72 h

Prompt: Suppose we examine the compound "CCC[C@@H](CCO)Nc1nc(N)nc2cnn(Cc3ncc(C4CCC5(CC4)CN(C(C)C)C5)cc3OC)c12" ; what IC50 at 72 h value has been reported?
Response: > 25 µM

Prompt: Dear colleague, I am looking for the recorded IC50 at 72 h of the following compound: "CCC[C@@H](CCO)Nc1nc(N)nc2cnn(Cc3ncc(C4CCN(C)CC4)cc3OC)c12"
Response: > 25 µM

Prompt: Can you look up the measured IC50 at 72 h of "CCCCNc1nc(N)nc2c(C)nn(Cc3ncc(C4CCNCC4)cc3OC)c12" for me?
Response: > 25 µM

Prompt: Name the reported IC50 at 72 h value associated with the compound "CCC[C@@H](CCO)Nc1nc(N)nc2cnn(Cc3ncc(C4CC5(CNC5)C4)cc3OC)c12"
Response: > 25 µM

Prompt: Consider the compound shown here: "CCC[C@@H](CCO)Nc1nc(N)nc2cnn(Cc3ncc(C4CCN(CCO)CC4)cc3OC)c12" What is its recorded IC50 at 72 h?
Response: > 25 µM

Prompt: What does the record list as IC50 at 72 h for "CCC[C@@H](CCO)Nc1nc(N)nc2cnn(Cc3ncc(C4CCN(C5CCOCC5)CC4)cc3OC)c12" ?
Response: > 25 µM

Prompt: What IC50 at 72 h value was documented for this compound, "CCCCNc1nc(N)nc2cnn(Cc3ccc(CNC4CCC4)cc3OC)c12" ?
Response: 15 µM

Prompt: Tell me the measured IC50 at 72 h of "CCC[C@@H](CCO)Nc1nc(N)nc2cnn(Cc3ncc(C4=CC5(CCN(C6CCOCC6)CC5)C4)cc3OC)c12" , please.
Response: 7.2 µM
